Hello, the source for this data is paper PMC9250534, in case you need it.

experimental.system: thrombin (Homo sapiens, UniProt P00734)
Construct: consists of two polypeptide chains of 36 (light chain) and 259 amino acid
experiment.notes: Thrombin inhibition screen of crude macrocycle reactions (residual thrombin activity, fluorogenic substrate Z-Gly-Gly-Arg-AMC)
Format: biochemical
study.conditions: 10 µM macrocycle concentration; crude reactions, Library 1a-l; scaffold AA1-AA2-AA3 combined with 1-16 or '-'
Numbered stars: 1 amine (or outer) side, 2 acyl side, 3 side chain; on linkers, the order of the positions; unused ones are H or OH. Bridge positions count the residues as written; N and C are the ends. Square brackets hold non-standard residues; d marks the D form. Peptide text beside a SMILES is read from it. * marks the point of attachment. Isoorotoyl = O=C(c1c[nH]c(=O)[nH]c1=O)*; Cysteamide = C(CS[*:3])N[*:1]; 4Amb = NCc1ccc(C(=O)O)cc1; Orn = NCCC[C@H](N)C(=O)O; 2Furoyl = O=C(c1ccco1)*; Bz = O=C(c1ccccc1)*; Mpa = O=C(O)CCS
Known percent residual thrombin activity of a selection of molecules
Number in %, nothing else.

Reference set (3 entries):
molecule	experimental.system	percent residual thrombin activity, %
C[C@H]1NC(=O)CCSSCCNC(=O)[C@H](CCCCNC(=O)c2c[nH]c(=O)[nH]c2=O)NC(=O)CCNC1=O [a-B2-D1/11]	thrombin (Homo sapiens, UniProt P00734)	107.663
CC(C)C[C@@H]1NC(=O)CCSSCCNC(=O)[C@H](CCCNC(=O)c2ccc(Cl)s2)NC(=O)[C@H]2CCCN(C2)C1=O [L-B4-D2/14]	thrombin (Homo sapiens, UniProt P00734)	97.6394
O=C(Cc1c[nH]c2ccccc12)NCCC[C@@H]1NC(=O)CCSSCCNC(=O)c2ccc(cc2)CNC(=O)[C@H](Cc2c[nH]c3ccccc23)NC1=O [D2-W-B3/12]	thrombin (Homo sapiens, UniProt P00734)	112.189

Ask | # query: percent residual thrombin activity of entry NC(=O)CC[C@@H]1NC(=O)CCSSCCNC(=O)[C@H](CCCCNC(=O)Cc2c[nH]c3ccccc23)NC(=O)C2(CC2)CNC1=O [Q-B6-D1/12]
Reply | 103.639

Ask | # query: percent residual thrombin activity of entry O=C1CCSSCCNC(=O)C(Cc2ccc(O)cc2)NC(=O)C2CCCN(C2)C(=O)C(CCCCNC(=O)c2c[nH]c(=O)[nH]c2=O)N1 (stereo not drawn) [D1-B4-y/11]
Reply | 105.223

Ask | # query: percent residual thrombin activity of entry O=C1CCSSCCNC(=O)c2ccc(cc2)CNC(=O)[C@H](Cc2c[nH]c3ccccc23)NC(=O)[C@H](CCCNC(=O)c2ccccc2)N1 [D2-W-B3/1] ([Mpa][Orn](Bz)W[4Amb]-Cysteamide; disulfide 1-C)
Reply | 105.41

Ask | # query: percent residual thrombin activity of entry O=C1CCSSCCNC(=O)[C@H](CCCCNC(=O)c2ccc(Cl)s2)NC(=O)C2(CC2)CNC(=O)[C@H](Cc2c[nH]c3ccccc23)N1 [W-B6-D1/14]
Reply | 81.7178

Ask | # query: percent residual thrombin activity of entry NC(=O)CC[C@@H]1NC(=O)CCSSCCNC(=O)[C@H]2CCCN(C2)C(=O)[C@H](CCCCNC(=O)COc2ccccc2)NC1=O [Q-D1-B4/13]
Reply | 120.491

Ask | # query: percent residual thrombin activity of entry COc1ccc(C(=O)NCCC[C@@H]2NC(=O)CCSSCCNC(=O)CCNC(=O)[C@H](CO)NC2=O)cn1 [D2-S-B2/10]
Reply | 107.459

Ask | # query: percent residual thrombin activity of entry NC(=O)CC[C@@H]1NC(=O)[C@@H]2CCCN2C(=O)CCSSCCNC(=O)[C@H](CCCNC(=O)c2c[nH]c(=O)[nH]c2=O)NC1=O [B1-Q-D2/11] ([Mpa]PQ[Orn](Isoorotoyl)-Cysteamide; disulfide 1-C)
Reply | 110.064

Ask | # query: percent residual thrombin activity of entry CC[C@H](C)[C@@H]1NC(=O)[C@H](CCCCNC(=O)COc2ccccc2)NC(=O)CCSSCCNC(=O)C2(CC2)CNC1=O [D1-I-B6/13]
Reply | 106.199

Ask | # query: percent residual thrombin activity of entry O=C1CCNC(=O)[C@H](CO)NC(=O)[C@H](CCCNC(=O)c2cnccn2)NC(=O)CCSSCCN1 [D2-S-B2/2]
Reply | 115.288

Ask | # query: percent residual thrombin activity of entry Cc1nnsc1C(=O)NCCCC[C@@H]1NC(=O)CCSSCCNC(=O)c2ccc(cc2)CNC(=O)[C@H](CO)NC1=O [D1-S-B3/15]
Reply | 113.1

Ask | # query: percent residual thrombin activity of entry NCCC[C@@H]1NC(=O)CCSSCCNC(=O)c2ccc(cc2)CNC(=O)[C@H](Cc2c[nH]c3ccccc23)NC1=O [D2-W-B3/-] ([Mpa][Orn]W[4Amb]-Cysteamide; disulfide 1-C)
Reply | 110.008

Ask | # query: percent residual thrombin activity of entry O=C(COc1ccccc1)NCCCC[C@@H]1NC(=O)CCNC(=O)[C@@H](CO)NC(=O)CCSSCCNC1=O [s-B2-D1/13]
Reply | 112.63

Ask | # query: percent residual thrombin activity of entry CC(C)CC(=O)NCCC[C@@H]1NC(=O)CCNC(=O)[C@H](Cc2cnc[nH]2)NC(=O)CCSSCCNC1=O [H-B2-D2/8]
Reply | 108.958

Ask | # query: percent residual thrombin activity of entry O=C(COc1ccccc1)NCCCC[C@@H]1NC(=O)[C@H](Cc2ccccc2)NC(=O)CCSSCCNC(=O)[C@H]2CCCN(C2)C1=O [F-D1-B4/13]
Reply | 109.797

Ask | # query: percent residual thrombin activity of entry CC(C)[C@@H]1NC(=O)CCSSCCNC(=O)[C@@H]2CCCN2C(=O)[C@H](CCCCNC(=O)c2ccco2)NC1=O [V-D1-B1/16] ([Mpa]VK(2Furoyl)P-Cysteamide; disulfide 1-C)
Reply | 110.34

Ask | # query: percent residual thrombin activity of entry O=C1CCSSCCNC(=O)[C@H](CCCCNC(=O)c2c[nH]c(=O)[nH]c2=O)NC(=O)[C@H](Cc2ccc(O)cc2)NC(=O)C2(CC2)CN1 [B6-Y-D1/11]
Reply | 105.574

Ask | # query: percent residual thrombin activity of entry COc1ccc(C(=O)NCCCC[C@@H]2NC(=O)[C@H](Cc3cnc[nH]3)NC(=O)c3ccc(cc3)CNC(=O)CCSSCCNC2=O)cn1 [B3-H-D1/10]
Reply | 107.476
